target or system: C3b (biotinylated, captured site-specifically on a streptavidin chip) (UniProt P01024)
assay procedure: SPR (Biacore 3000), single-cycle kinetics, biotinylated C3b on streptavidin chip, peptide as analyte, 1:1 Langmuir fit
Bridge positions count the residues as written; N and C are the ends. Square brackets hold non-standard residues; d marks the D form. Ends that are not written are not given here. Trp(1-Me) = Cn1cc(C[C@H](N)C(=O)O)c2ccccc21; NMeI = CC[C@H](C)[C@H](NC)C(=O)O; Sar = CNCC(=O)O
So I've got a bunch of binders here, and I need their kon values.
# unit: M⁻¹ s⁻¹ | format: bare number

Record VICVWQDWGAHRCI (mVal (N-methyl-Val) at Xaa0; Trp(Me) at position 4; Sar at position 8; mIle at position 13; C-terminal -NH2; cyclic via Cys2-Cys12 disulfide (compstatin position numbering)) [Peptide 11: mVal-Ile-[Cys-Val-Trp(Me)-Gln-Asp-Trp-Sar-Ala-His-Arg-Cys]-mIle-NH2] , field kon: 1.8e+06

Record GICVWQDWGAHRCI (Sar (N-methyl-Gly) at Xaa0 (N-terminus); Trp(Me) at position 4; Sar at position 8; mIle at position 13; C-terminal -NH2; cyclic via Cys2-Cys12 disulfide (compstatin position numbering)) [Compstatin 30 (Cp30): Sar-Ile-[Cys-Val-Trp(Me)-Gln-Asp-Trp-Sar-Ala-His-Arg-Cys]-mIle-NH2] , field kon: 1.9e+06

Record IICVWQDWGAHRCI (mIle (N-methyl-Ile; printed 'mlle') at Xaa0; Trp(Me) at position 4; Sar at position 8; mIle at position 13; C-terminal -NH2; cyclic via Cys2-Cys12 disulfide (compstatin position numbering)) [Peptide 12: mIle-Ile-[Cys-Val-Trp(Me)-Gln-Asp-Trp-Sar-Ala-His-Arg-Cys]-mIle-NH2] , field kon: 1.6e+06

Record YGCV[Trp(1-Me)]QDW[Sar]AHRC[NMeI]-NH2 (disulfide 3-13; N-terminus assumed; SMILES CC[C@H](C)[C@@H](C(N)=O)N(C)C(=O)[C@@H]1CSSC[C@H](NC(=O)CNC(=O)[C@@H](N)Cc2ccc(O)cc2)C(=O)N[C@@H](C(C)C)C(=O)N[C@@H](Cc2cn(C)c3ccccc23)C(=O)N[C@@H](CCC(N)=O)C(=O)N[C@@H](CC(=O)O)C(=O)N[C@@H](Cc2c[nH]c3ccccc23)C(=O)N(C)CC(=O)N[C@@H](C)C(=O)N[C@@H](Cc2c[nH]cn2)C(=O)N[C@@H](CCCNC(=N)N)C(=O)N1) [Peptide 20: Tyr-Gly-[Cys-Val-Trp(Me)-Gln-Asp-Trp-Sar-Ala-His-Arg-Cys]-mIle-NH2] , field kon: 2.1e+06
